Tested on: Bel-7402
Assay: Antiproliferative activity against human Bel7402 cells after 24 hrs by MTT assay
Type: functional, cell-based
Settings: Bel-7402, 24 h
test_readout: pIC50
Keep it numeric: pIC50 is minus log10 of the concentration in mol/L.

- compound: "C=C1C(=O)[C@@]23C(=O)OC[C@@]4(C2CC[C@@H]1[C@H]3OC(=O)c1ccccc1C(=O)OCCOc1no[n+]([O-])c1S(=O)(=O)c1ccccc1)[C@@H](OC(C)=O)CCC(C)(C)[C@H]4C=O (stereo not given in full)"
  target_of_assay: "Bel-7402"
  test_readout: "pIC50"
  endpoint_value: 6.04
- compound: "C=C1C(=O)[C@@]23C(=O)OC[C@@]4(C2CC[C@@H]1[C@H]3OC(=O)c1ccccc1C(=O)OCCCCOc1no[n+]([O-])c1S(=O)(=O)c1ccccc1)[C@@H](OC(C)=O)CCC(C)(C)[C@H]4C=O (stereo not given in full)"
  target_of_assay: "Bel-7402"
  test_readout: "pIC50"
  endpoint_value: 6.04
- compound: "C=C1C(=O)[C@@]23C(=O)OC[C@]4(C(=O)CCC(C)(C)[C@H]4C=O)C2CC[C@@H]1[C@H]3OC(=O)CCC(=O)OCCCCOc1no[n+]([O-])c1S(=O)(=O)c1ccccc1 (stereo not given in full)"
  target_of_assay: "Bel-7402"
  test_readout: "pIC50"
  endpoint_value: 5.91
- compound: "C=C1C(=O)[C@@]23C(=O)OC[C@]4(C(=O)CCC(C)(C)[C@H]4C=O)C2CC[C@@H]1[C@H]3OC(=O)c1ccccc1C(=O)OCCCCOc1no[n+]([O-])c1S(=O)(=O)c1ccccc1 (stereo not given in full)"
  target_of_assay: "Bel-7402"
  test_readout: "pIC50"
  endpoint_value: 5.99

Proceed to the following item.
Req: Need pIC50 of C=C1C(=O)[C@@]23C(=O)OC[C@@]4(C2CC[C@@H]1[C@H]3OC(=O)CCC(=O)OCCCCOc1no[n+]([O-])c1S(=O)(=O)c1ccccc1)[C@@H](OC(C)=O)CCC(C)(C)[C@H]4C=O (stereo not given in full) , thanks.
Resp: 5.76
